Hey, just so you know, these numbers are from patent US20060040957A1.

subject-of-test: MMP-1FL (full length interstitial collagenase) (Homo sapiens)
Sequence (P03956 100-469, species assumed): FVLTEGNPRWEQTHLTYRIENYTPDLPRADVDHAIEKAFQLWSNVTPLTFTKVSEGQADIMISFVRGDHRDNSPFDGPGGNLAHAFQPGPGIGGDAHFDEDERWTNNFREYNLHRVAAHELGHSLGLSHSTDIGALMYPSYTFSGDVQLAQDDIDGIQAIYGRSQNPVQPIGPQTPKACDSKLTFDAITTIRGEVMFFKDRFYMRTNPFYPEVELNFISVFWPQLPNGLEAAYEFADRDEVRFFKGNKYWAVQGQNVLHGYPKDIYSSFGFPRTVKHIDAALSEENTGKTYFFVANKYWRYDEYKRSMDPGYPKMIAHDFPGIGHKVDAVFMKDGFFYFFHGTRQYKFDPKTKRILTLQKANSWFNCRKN
test-protocol: Thiopeptolide substrate hydrolysis assay, MMP-1FL
Assay type: biochemical
experimental-setup: HEPES pH 7.0, 22° C., read-out: IC50 (μM) Versus Certain MMPs: MMP-01 FL
Where a name gives a salt, the structure may show the parent alone.
Examples of molecules with documented IC50 follow.

Examples with their reported IC50 follow.
[[record]]
molecule = "Cc1c(=O)n(Cc2ccccc2)c(=O)n2cc(C(=O)OCc3ccccc3)sc12"
obs_value = "> 100 µM"

[[record]]
molecule = "COC(=O)c1nc(Cn2c(=O)c(C)c3sc(C(=O)NCc4ccc(F)cc4)cn3c2=O)ncc1OC"
obs_value = "> 30 µM"

[[record]]
molecule = "COc1cc(CNC(=O)c2cn3c(=O)n(Cc4ccccc4)c(=O)c(C)c3s2)ccn1"
obs_value = "> 30 µM"

[[record]]
molecule = "O=C(OCc1ccncc1)C1Cn2c(cc(=O)n(Cc3ccccc3)c2=O)S1 (centres unmarked) [Example 21, hydrochloride]"
obs_value = "> 100 µM"


Continue with the next molecule.
Memo: O=C(OCc1ccncc1)c1cn2c(=O)n(Cc3ccccc3)c(=O)cc2s1 [Example 3, hydrochloride] , reported IC50: > 100 µM
